Values from ChEMBL document CHEMBL5154644

Items are presented alongside their recorded inhibition at 30 min, 10 µM.
Target: CYP3A4 (Homo sapiens)
Sequence (P08684 whole entry): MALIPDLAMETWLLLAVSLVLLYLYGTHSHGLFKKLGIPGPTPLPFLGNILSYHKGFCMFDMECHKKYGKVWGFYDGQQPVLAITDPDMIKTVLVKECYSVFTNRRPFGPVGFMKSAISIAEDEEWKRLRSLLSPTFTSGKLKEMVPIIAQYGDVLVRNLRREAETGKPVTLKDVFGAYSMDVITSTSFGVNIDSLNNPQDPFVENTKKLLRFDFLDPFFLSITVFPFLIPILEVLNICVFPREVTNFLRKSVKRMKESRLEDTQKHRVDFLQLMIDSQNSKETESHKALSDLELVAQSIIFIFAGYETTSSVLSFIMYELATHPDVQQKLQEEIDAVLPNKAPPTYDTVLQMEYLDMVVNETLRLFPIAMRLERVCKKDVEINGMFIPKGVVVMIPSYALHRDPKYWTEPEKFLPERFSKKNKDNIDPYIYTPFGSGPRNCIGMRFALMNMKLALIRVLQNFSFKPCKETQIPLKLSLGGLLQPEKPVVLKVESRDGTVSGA
Test: in vitro
Conditions: human liver microsomes, probe midazolam
Description: Time dependent inhibition of CYP3A4 in human liver microsomes at 10 uM using midazolam as substrate preincubated for 30 mins in presence of NADPH by LC/MS/MS analysis relative to control
Your answer is read as %, so omit the unit and give the number.

Sample records with inhibition at 30 min, 10 µM:
>>> observed("C[C@@H](C1CC1)N1Cc2cc(-c3ccn4nc(N)c(C(=O)NC5CC5)c4n3)cc(S(=O)(=O)C3CC3)c2C1=O")
23
>>> observed("Cc1cc(-c2ccn3nc(N)c(C(=O)N[C@H]4CC[C@H](O)CC4)c3n2)cc2c1C(=O)N([C@@H](C)C1CC1)C2")
26
>>> observed("C[C@@H](C1CC1)N1Cc2cc(-c3ccn4nc(N)c(C(=O)NC5CC5)c4n3)cc(S(=O)(=O)C3CCC3)c2C1=O")
35
>>> observed("C[C@@H](C1CC1)N1Cc2cc(-c3ccn4nc(N)c(C(=O)N[C@@H](CO)C5CC5)c4n3)cc(NS(C)(=O)=O)c2C1=O")
35
>>> observed("C[C@@H](C1CC1)N1Cc2cc(-c3ccn4nc(N)c(C(=O)N[C@H]5CC[C@](C)(O)CC5)c4n3)cc(NS(C)(=O)=O)c2C1=O")
12

Bench note, CYP3A4 (Homo sapiens): `C[C@@H](C1CC1)N1Cc2cc(-c3ccn4nc(N)c(C(=O)NC5CC5)c4n3)cc(OC(F)(F)F)c2C1=O` , inhibition at 30 min, 10 µM reads 20

Bench note, CYP3A4 (Homo sapiens): `Cc1cc(-c2ccn3nc(N)c(C(=O)NC4CC4)c3n2)cc2c1C(=O)N([C@@H](C)C1CC1)C2` , inhibition at 30 min, 10 µM reads 27

* * *

Target: Phosphatidylinositol 4,5-bisphosphate 3-kinase catalytic subunit delta isoform (Homo sapiens)
Sequence (O00329 whole entry, canonical isoform): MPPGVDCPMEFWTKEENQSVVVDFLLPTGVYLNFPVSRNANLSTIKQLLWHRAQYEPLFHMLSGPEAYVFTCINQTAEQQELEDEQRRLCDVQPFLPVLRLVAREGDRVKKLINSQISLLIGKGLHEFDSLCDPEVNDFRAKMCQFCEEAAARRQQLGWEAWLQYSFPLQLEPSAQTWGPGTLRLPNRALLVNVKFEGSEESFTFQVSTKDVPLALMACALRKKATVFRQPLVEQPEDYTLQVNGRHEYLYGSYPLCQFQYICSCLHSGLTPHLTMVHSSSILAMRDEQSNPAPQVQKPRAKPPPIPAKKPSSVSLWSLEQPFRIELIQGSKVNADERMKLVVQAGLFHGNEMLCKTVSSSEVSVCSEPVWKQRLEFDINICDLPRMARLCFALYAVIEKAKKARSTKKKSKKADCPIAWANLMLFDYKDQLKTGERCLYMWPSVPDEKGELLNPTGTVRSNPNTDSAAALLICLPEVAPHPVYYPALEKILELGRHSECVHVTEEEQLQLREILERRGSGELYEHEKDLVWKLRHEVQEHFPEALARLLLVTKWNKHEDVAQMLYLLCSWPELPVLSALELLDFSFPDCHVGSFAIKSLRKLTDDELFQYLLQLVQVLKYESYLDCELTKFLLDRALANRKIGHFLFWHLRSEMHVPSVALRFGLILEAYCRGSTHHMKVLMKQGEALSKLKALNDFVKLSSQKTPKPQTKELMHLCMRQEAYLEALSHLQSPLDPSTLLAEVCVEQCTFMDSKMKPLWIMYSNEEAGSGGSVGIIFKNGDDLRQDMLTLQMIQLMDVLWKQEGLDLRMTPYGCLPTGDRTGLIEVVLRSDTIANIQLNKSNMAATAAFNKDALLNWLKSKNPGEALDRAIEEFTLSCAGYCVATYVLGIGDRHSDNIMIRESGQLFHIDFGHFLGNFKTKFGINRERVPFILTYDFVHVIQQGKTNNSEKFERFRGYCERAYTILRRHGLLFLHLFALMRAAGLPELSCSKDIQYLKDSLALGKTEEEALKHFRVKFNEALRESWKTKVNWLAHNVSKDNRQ
Experiment: Inhibition of PI3Kdelta (unknown origin) using PIP2 as substrate preincubated for 1 hr followed by substrate addition and measured after 60 mins in presence of ATP by ADP-glo assay
Measured Property: pIC50
Reminder that pIC50 means the negative base-10 logarithm of the concentration expressed in mol/L.

Sample records with pIC50:
>>> observed("C[C@@H](C1CC1)N1Cc2cc(-c3ccn4nc(N)c(C(=O)N[C@H]5CC[C@@](C)(O)CC5)c4n3)cc(OC(F)F)c2C1=O")
5.97
>>> observed("C[C@@H](C1CC1)N1Cc2cc(-c3ccn4nc(N)c(C(=O)NC5CC5)c4n3)cc(OC(F)F)c2C1=O")
5.67

The compound listed as `CC(C)S(=O)(=O)c1cc(-c2ccn3nc(N)c(C(=O)NC4CC4)c3n2)cc2c1C(=O)N([C@@H](C)C1CC1)C2` shows pIC50 equal to 6.15

The compound listed as `C[C@@H](C1CC1)N1Cc2cc(-c3ccn4nc(N)c(C(=O)NC5CC5)c4n3)cc(NS(C)(=O)=O)c2C1=O` shows pIC50 equal to 6.38

* * *

Experiment: Metabolic stability in rat hepatocyte assessed as intrinsic clearance per 10^8 cells at 0.5 uM by LC-MS/MS analysis
Assay type: ADME, cell-based
Details: hepatocytes
Measured Property: hepatocyte intrinsic clearance (µL/min)
Your answer is read as µL/min, so omit the unit and give the number.

>>> observed("Cc1cc(-c2ccn3nc(N)c(C(=O)NC4CC4)c3n2)cc2c1C(=O)N([C@@H](C)C1CC1)C2")
1.5
>>> observed("CC(C)c1cc(-c2ccn3nc(N)c(C(=O)NC4CC4)c3n2)cc2c1C(=O)N([C@@H](C)C1CC1)C2")
2.41
>>> observed("C[C@@H](C1CC1)N1Cc2cc(-c3ccn4nc(N)c(C(=O)N[C@H]5CC[C@@](C)(O)CC5)c4n3)cc(OC(F)F)c2C1=O")
2.62
>>> observed("Cc1cc(-c2ccn3nc(N)c(C(=O)N[C@H]4CC[C@H](N)CC4)c3n2)cc2c1C(=O)N([C@@H](C)C1CC1)C2")
19.3

The compound listed as `CC(C)[C@H](N1Cc2cc(-c3ccn4nc(N)c(C(=O)NC5CC5)c4n3)cc(NS(C)(=O)=O)c2C1=O)C(F)(F)F` shows hepatocyte intrinsic clearance equal to 3.65

The compound listed as `Cc1cc(-c2ccn3nc(N)c(C(=O)N[C@@H](CO)C4CC4)c3n2)cc2c1C(=O)N([C@@H](C)C1CC1)C2` shows hepatocyte intrinsic clearance equal to 1.31

The compound listed as `Cc1cc(-c2ccn3nc(N)c(C(=O)N[C@H]4CC[C@@](C)(O)CC4)c3n2)cc2c1C(=O)N([C@@H](C)C1CC1)C2` shows hepatocyte intrinsic clearance equal to 11.6

The compound listed as `C[C@@H](C1CC1)N1Cc2cc(-c3ccn4nc(N)c(C(=O)N[C@H]5CC[C@](O)(C(F)(F)F)CC5)c4n3)cc(NS(C)(=O)=O)c2C1=O` shows hepatocyte intrinsic clearance equal to 11

The compound listed as `C[C@H](N1Cc2cc(-c3ccn4nc(N)c(C(=O)N[C@H]5CC[C@@](C)(O)CC5)c4n3)cc(NS(C)(=O)=O)c2C1=O)C(F)(F)F` shows hepatocyte intrinsic clearance equal to 3.38

The compound listed as `COc1cc(-c2ccn3nc(N)c(C(=O)NC4CC4)c3n2)cc2c1C(=O)N([C@@H](C)C1CC1)C2` shows hepatocyte intrinsic clearance equal to 2.07

The compound listed as `CNS(=O)(=O)c1cc(-c2ccn3nc(N)c(C(=O)NC4CC4)c3n2)cc2c1C(=O)N([C@@H](C)C1CC1)C2` shows hepatocyte intrinsic clearance equal to 4.91
